target: Inadl_5, Q8NI35; test: holdup assay; parameters: key: below the threshold = too weak to quantify, mostly under pKd 3.1 to 4; conditions: plain residues with an end cap or a label only (N-terminal biotin on a linker: ado-ado)
Sequence (Q8NI35 673-780): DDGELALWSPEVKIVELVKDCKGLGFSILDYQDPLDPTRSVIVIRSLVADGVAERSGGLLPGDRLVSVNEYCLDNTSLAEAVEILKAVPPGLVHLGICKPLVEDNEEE
PROPERTY NAME: pKd

In the examples that follow, each entry is paired with its recorded pKd.
>>> df
                       binder  property_name      measured_result
0  NKSEPFLTWL [WWTR1, Q9GZV5]            pKd  below the threshold
1  QQGLLPHSSC [TYRO3, Q06418]            pKd  below the threshold
2    SRPHTNETSL [MCC, P23508]            pKd  below the threshold
3  QRYPGNQTTC [CCL24, O00175]            pKd  below the threshold
4   GDSSRKEYFI [GYPC, P04921]            pKd                 5.16
5  DAAHHDESNC [FMNL3, Q8IVF7]            pKd  below the threshold
6  KLQNPNQSVV [TYRP1, P17643]            pKd  below the threshold
7  QKNKDREYYV [NRXN3, Q9HDB5]            pKd                 4.64

PSVYSRSQYV [CLDN8, P56748] yielded pKd of 4.31

LVEEEEPMNL [HDAC7, Q8WUI4] yielded pKd of below the threshold

ADEMICITTL [CACNA1D, Q01668] yielded pKd of below the threshold

KKTPVSRSHL [SLC22A3, O75751] yielded pKd of below the threshold

LLQEEWETVM [PTH1R, Q03431] yielded pKd of below the threshold

WAKEKQHTRL [SLC17A1, Q14916] yielded pKd of below the threshold

VISSDDLTEL [CAPN6, Q9Y6Q1] yielded pKd of below the threshold

DFKHTKSFII [JAM2, P57087] yielded pKd of below the threshold
